Organism: Rattus norvegicus
Assay: The inhibitory effect on the continuous avoidance was expressed as the dose to increase the number of electroshocks by 60% of the rats
Assay type: functional
Binarize ED50 at 0.04 mg/kg; below is label 1, at or above is label 0.

Use these answered entries as a reference point.
{"molecule": "CNc1cc(OC)c(C(=O)NC2CCN(Cc3ccccc3)C2)cc1Cl (stereo unspecified)", "assigned-category": "label 1"}
{"molecule": "O=C(CCCN1CCC(O)(c2ccc(Cl)cc2)CC1)c1ccc(F)cc1 [HALOPERIDOL]", "assigned-category": "label 1"}
{"molecule": "CNc1cc(OC)c(C(=O)NCC2CCC(C)N2Cc2ccccc2)cc1Cl.Cl (stereo unspecified)", "assigned-category": "label 0"}
{"molecule": "CCN(CC)CCNC(=O)c1cc(Cl)c(N)cc1OC [METOCLOPRAMIDE]", "assigned-category": "label 0"}

Let's switch to this molecule now.
Problem: Does the reported ED50 of the following molecule sit strictly below 0.04 mg/kg? CNc1cc(OC)c(C(=O)NC2CCN(Cc3ccccc3)C2C)cc1Cl (cis isomer) [NEMONAPRIDE]
Result: label 1
